# key: entry, value: OD450nm
Biological target: HRgpA-6H (Porphyromonas gingivalis) (UniProt P28784)
Experiment: ELISA, FASEBA Fab on coated HRgpA-6H

• KB001 mouse Fab VL T100W (Fab, V domains shown) VH: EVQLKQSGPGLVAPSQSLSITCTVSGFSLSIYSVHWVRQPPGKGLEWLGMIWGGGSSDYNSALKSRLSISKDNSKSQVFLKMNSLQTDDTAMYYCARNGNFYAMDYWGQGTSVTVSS VL: QIVLTQSPAIMSASLGERVTMTCTASSSVSSSFLHWYQQKPGSSPQLWIYSTSNLASGVPARFSGSGSGTSYSLTISSMEAEDAATYYCHQYHHSPYIYWFGGGTKLEIK = 0.585

We now examine a further binder.
Value of measured OD450nm for the entry KB001 mouse Fab VL S32Y (Fab, V domains shown) VH: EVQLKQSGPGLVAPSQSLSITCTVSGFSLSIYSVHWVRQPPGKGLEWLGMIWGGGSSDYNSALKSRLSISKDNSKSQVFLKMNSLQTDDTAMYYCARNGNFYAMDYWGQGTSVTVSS VL: QIVLTQSPAIMSASLGERVTMTCTASSSVSSYFLHWYQQKPGSSPQLWIYSTSNLASGVPARFSGSGSGTSYSLTISSMEAEDAATYYCHQYHHSPYIYTFGGGTKLEIK : 0.753
